Biological target: T1, alpha-s1 casein from Bos taurus
T1 chain: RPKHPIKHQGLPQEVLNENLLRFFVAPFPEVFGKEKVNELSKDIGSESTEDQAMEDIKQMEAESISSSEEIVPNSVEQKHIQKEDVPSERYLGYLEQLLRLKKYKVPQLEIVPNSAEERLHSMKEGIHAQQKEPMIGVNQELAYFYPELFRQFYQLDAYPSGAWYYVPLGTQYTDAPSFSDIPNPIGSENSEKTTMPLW
Assign αs1-I CN, 24 hours, 11° C. to each entry below.
Write the answer as a number in Volume, unit excluded.

GET /value?item= camel chymosin variant #144 (F223Y) (protein) GKVAREPLTSYLDSQYFGKIYIGTPPQEFTVVFDTGSSDLWVPSIYCKSNVCKNHHRFDPRKSSTFRNLGKPLSIHYGTGSMEGFLGYDTVTVSNIVDPNQTVGLSTEQPGEVFTYSEFDGILGLAYPSLASEYSVPVFDNMMDRHLVARDLFSVYMDRNGQGSMLTLGAIDPSYYTGSLHWVPVTLQQYWQFTVDSVTINGVAVACVGGCQAILDTGTSVLYGPSSDILKIQMAIGATENRYGEFDVNCGNLRSMPTVVFEINGRDYPLSPSAYTSKDQGFCTSGFQGDNNSELWILGDVFIREYYSVFDRANNRVGLAKAI &field=αs1-I CN, 24 hours, 11° C. returns 2.82e+07

GET /value?item= camel chymosin variant #162 (L295R) (protein) GKVAREPLTSYLDSQYFGKIYIGTPPQEFTVVFDTGSSDLWVPSIYCKSNVCKNHHRFDPRKSSTFRNLGKPLSIHYGTGSMEGFLGYDTVTVSNIVDPNQTVGLSTEQPGEVFTYSEFDGILGLAYPSLASEYSVPVFDNMMDRHLVARDLFSVYMDRNGQGSMLTLGAIDPSYYTGSLHWVPVTLQQYWQFTVDSVTINGVAVACVGGCQAILDTGTSVLFGPSSDILKIQMAIGATENRYGEFDVNCGNLRSMPTVVFEINGRDYPLSPSAYTSKDQGFCTSGFQGDNNSERWILGDVFIREYYSVFDRANNRVGLAKAI &field=αs1-I CN, 24 hours, 11° C. returns 3.1e+07

GET /value?item= camel chymosin variant #138 (F223E) (protein) GKVAREPLTSYLDSQYFGKIYIGTPPQEFTVVFDTGSSDLWVPSIYCKSNVCKNHHRFDPRKSSTFRNLGKPLSIHYGTGSMEGFLGYDTVTVSNIVDPNQTVGLSTEQPGEVFTYSEFDGILGLAYPSLASEYSVPVFDNMMDRHLVARDLFSVYMDRNGQGSMLTLGAIDPSYYTGSLHWVPVTLQQYWQFTVDSVTINGVAVACVGGCQAILDTGTSVLEGPSSDILKIQMAIGATENRYGEFDVNCGNLRSMPTVVFEINGRDYPLSPSAYTSKDQGFCTSGFQGDNNSELWILGDVFIREYYSVFDRANNRVGLAKAI &field=αs1-I CN, 24 hours, 11° C. returns 2.47e+07

GET /value?item= camel chymosin variant #160 (L295K) (protein) GKVAREPLTSYLDSQYFGKIYIGTPPQEFTVVFDTGSSDLWVPSIYCKSNVCKNHHRFDPRKSSTFRNLGKPLSIHYGTGSMEGFLGYDTVTVSNIVDPNQTVGLSTEQPGEVFTYSEFDGILGLAYPSLASEYSVPVFDNMMDRHLVARDLFSVYMDRNGQGSMLTLGAIDPSYYTGSLHWVPVTLQQYWQFTVDSVTINGVAVACVGGCQAILDTGTSVLFGPSSDILKIQMAIGATENRYGEFDVNCGNLRSMPTVVFEINGRDYPLSPSAYTSKDQGFCTSGFQGDNNSEKWILGDVFIREYYSVFDRANNRVGLAKAI &field=αs1-I CN, 24 hours, 11° C. returns 2.49e+07

GET /value?item= camel chymosin variant #153 (D290L) (protein) GKVAREPLTSYLDSQYFGKIYIGTPPQEFTVVFDTGSSDLWVPSIYCKSNVCKNHHRFDPRKSSTFRNLGKPLSIHYGTGSMEGFLGYDTVTVSNIVDPNQTVGLSTEQPGEVFTYSEFDGILGLAYPSLASEYSVPVFDNMMDRHLVARDLFSVYMDRNGQGSMLTLGAIDPSYYTGSLHWVPVTLQQYWQFTVDSVTINGVAVACVGGCQAILDTGTSVLFGPSSDILKIQMAIGATENRYGEFDVNCGNLRSMPTVVFEINGRDYPLSPSAYTSKDQGFCTSGFQGLNNSELWILGDVFIREYYSVFDRANNRVGLAKAI &field=αs1-I CN, 24 hours, 11° C. returns 3.49e+07

GET /value?item= Maxiren (recombinant wild-type calf chymosin B) (protein) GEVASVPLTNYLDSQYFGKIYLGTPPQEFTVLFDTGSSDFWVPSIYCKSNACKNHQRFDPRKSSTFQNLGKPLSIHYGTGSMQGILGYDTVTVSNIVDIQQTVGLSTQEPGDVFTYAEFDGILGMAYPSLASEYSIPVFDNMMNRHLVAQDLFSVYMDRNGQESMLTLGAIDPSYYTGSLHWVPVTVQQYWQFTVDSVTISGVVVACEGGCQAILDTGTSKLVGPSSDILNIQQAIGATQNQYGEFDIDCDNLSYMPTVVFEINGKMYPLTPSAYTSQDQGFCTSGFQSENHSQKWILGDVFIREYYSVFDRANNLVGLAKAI &field=αs1-I CN, 24 hours, 11° C. returns 1.59e+07

GET /value?item= bovine chymosin B variant #6 (K221M) (protein) GEVASVPLTNYLDSQYFGKIYLGTPPQEFTVLFDTGSSDFWVPSIYCKSNACKNHQRFDPRKSSTFQNLGKPLSIHYGTGSMQGILGYDTVTVSNIVDIQQTVGLSTQEPGDVFTYAEFDGILGMAYPSLASEYSIPVFDNMMNRHLVAQDLFSVYMDRNGQESMLTLGAIDPSYYTGSLHWVPVTVQQYWQFTVDSVTISGVVVACEGGCQAILDTGTSMLVGPSSDILNIQQAIGATQNQYGEFDIDCDNLSYMPTVVFEINGKMYPLTPSAYTSQDQGFCTSGFQSENHSQKWILGDVFIREYYSVFDRANNLVGLAKAI &field=αs1-I CN, 24 hours, 11° C. returns 2.22e+07

GET /value?item= camel chymosin variant #140 (F223M) (protein) GKVAREPLTSYLDSQYFGKIYIGTPPQEFTVVFDTGSSDLWVPSIYCKSNVCKNHHRFDPRKSSTFRNLGKPLSIHYGTGSMEGFLGYDTVTVSNIVDPNQTVGLSTEQPGEVFTYSEFDGILGLAYPSLASEYSVPVFDNMMDRHLVARDLFSVYMDRNGQGSMLTLGAIDPSYYTGSLHWVPVTLQQYWQFTVDSVTINGVAVACVGGCQAILDTGTSVLMGPSSDILKIQMAIGATENRYGEFDVNCGNLRSMPTVVFEINGRDYPLSPSAYTSKDQGFCTSGFQGDNNSELWILGDVFIREYYSVFDRANNRVGLAKAI &field=αs1-I CN, 24 hours, 11° C. returns 2.27e+07
